Overview of recorded OD450 for various binders
Biological target: T1, biotin-peptide SSMEDYVNFN (human)
T1 peptide: Biotin-SSMEDYVNFN
Experiment: ELISA biotin-peptide; scFv 10 ug/mL; repII
Where no end group is shown, it is not given here. The star is where a group is joined. Biotin = O=C1N[C@H]2[C@H](CS[C@H]2CCCCC(=O)*)N1
Observable: OD450

* Comparative antibody 2 (Comp-2) scFv, 243LO326 (VH SEQ ID NO: 51 and VL SEQ ID NO: 52 of WO 2022/195028 A2), His-tagged (scFv) scFv: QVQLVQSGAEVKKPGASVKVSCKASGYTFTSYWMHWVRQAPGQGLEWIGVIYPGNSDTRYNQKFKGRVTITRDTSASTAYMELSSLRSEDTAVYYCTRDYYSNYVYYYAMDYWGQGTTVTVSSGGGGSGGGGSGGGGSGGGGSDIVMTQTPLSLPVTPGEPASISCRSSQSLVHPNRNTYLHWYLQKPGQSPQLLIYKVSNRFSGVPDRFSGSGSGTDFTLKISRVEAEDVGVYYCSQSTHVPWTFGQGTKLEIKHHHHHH | 0.1 OD
* Comparative antibody 1 (Comp-1) scFv, SEQ ID NO: 10 from WO2023/037125 A1, His-tagged (scFv) scFv: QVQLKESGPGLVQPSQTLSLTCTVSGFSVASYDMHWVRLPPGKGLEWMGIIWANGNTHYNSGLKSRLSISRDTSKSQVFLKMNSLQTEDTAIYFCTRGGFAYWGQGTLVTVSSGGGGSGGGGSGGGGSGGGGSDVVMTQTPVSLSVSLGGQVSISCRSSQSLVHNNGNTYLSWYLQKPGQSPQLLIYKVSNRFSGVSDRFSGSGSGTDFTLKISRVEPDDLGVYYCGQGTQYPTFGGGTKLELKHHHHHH | 0.13 OD
* CCR9_HUM2 scFv (humanized anti-CCR9 scFv, SEQ ID NO: 17 with C-terminal 6xHis tag) (scFv) scFv: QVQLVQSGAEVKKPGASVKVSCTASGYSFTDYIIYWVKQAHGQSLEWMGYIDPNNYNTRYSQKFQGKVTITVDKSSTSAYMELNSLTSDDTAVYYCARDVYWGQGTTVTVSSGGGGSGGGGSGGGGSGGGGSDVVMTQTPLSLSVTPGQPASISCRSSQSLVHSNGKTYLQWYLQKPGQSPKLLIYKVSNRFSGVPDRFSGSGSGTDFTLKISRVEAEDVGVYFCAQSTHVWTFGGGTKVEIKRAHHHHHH | 2.3 OD
* Comparative antibody 3 (Comp-3) scFv, SR_92R (Somovilla-Crespo et al. 2018), His-tagged (scFv) scFv: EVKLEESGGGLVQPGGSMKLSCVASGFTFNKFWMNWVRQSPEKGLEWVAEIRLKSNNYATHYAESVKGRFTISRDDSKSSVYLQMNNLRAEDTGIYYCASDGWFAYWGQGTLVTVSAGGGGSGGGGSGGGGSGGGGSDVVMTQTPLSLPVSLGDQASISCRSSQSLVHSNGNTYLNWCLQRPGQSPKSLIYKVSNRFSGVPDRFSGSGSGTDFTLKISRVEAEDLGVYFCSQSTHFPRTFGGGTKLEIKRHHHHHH | 0.12 OD
